System: DU-145
Protocol summary: Cytotoxicity against human DU145 cells after 48 hrs by sulforhodamine B assay
Type: functional
Assay context: DU-145, 48 h
Recorded endpoint: GI50
Report as: number unit

(Q) Write GI50 of CC(C)C[C@H]1OC(=O)[C@H](C(C)C)NC(=O)[C@H](C)OC(=O)[C@@H](C(C)C)NC(=O)[C@@H](CC(C)C)OC(=O)[C@H](C(C)C)NC(=O)[C@H](C)OC(=O)[C@@H](C(C)C)NC(=O)[C@@H](CC2CCCCC2)OC(=O)[C@H](Cc2ccc(OC(C)(C)C)cc2)NC(=O)[C@H](C)OC(=O)[C@@H](C(C)C)NC1=O ; system used: DU-145
(A) 30 nM

(Q) Write GI50 of CC(C)[C@@H]1NC(=O)[C@H](C)OC(=O)[C@@H](C(C)C)NC(=O)[C@@H](CC2CCCCC2)OC(=O)[C@H](C(C)C)NC(=O)[C@H](C)OC(=O)[C@@H](C(C)C)NC(=O)[C@@H](CC2CCCCC2)OC(=O)[C@H](C(C)C)NC(=O)[C@H](C)OC(=O)[C@@H](C(C)C)NC(=O)[C@@H](CC2CCCCC2)OC1=O ; system used: DU-145
(A) 173 nM

(Q) Write GI50 of CC[C@H](C)[C@H]1OC(=O)[C@H](C(C)C)NC(=O)[C@H](C)OC(=O)[C@@H](C(C)C)NC(=O)[C@@H]([C@@H](C)CC)OC(=O)[C@H](C(C)C)NC(=O)[C@H](C)OC(=O)[C@@H](C(C)C)NC(=O)[C@@H]([C@@H](C)CC)OC(=O)[C@H](C(C)C)NC(=O)[C@H](C)OC(=O)[C@@H](C(C)C)NC1=O ; system used: DU-145
(A) 1.3 nM
